Cited source for all entries: patent US12679839B2

- targetEntity: CDK7/Cyclin H/MAT-1 complex (Homo sapiens, UniProt P50613)
- Construct: Human CDK7 (amino acids 1-346); His6 (N); TEV protease cleavage site (N); made in house; host or cells: baculovirus-SF9 insect cells
- Sequence (P50613 whole entry, the tested form may be a part): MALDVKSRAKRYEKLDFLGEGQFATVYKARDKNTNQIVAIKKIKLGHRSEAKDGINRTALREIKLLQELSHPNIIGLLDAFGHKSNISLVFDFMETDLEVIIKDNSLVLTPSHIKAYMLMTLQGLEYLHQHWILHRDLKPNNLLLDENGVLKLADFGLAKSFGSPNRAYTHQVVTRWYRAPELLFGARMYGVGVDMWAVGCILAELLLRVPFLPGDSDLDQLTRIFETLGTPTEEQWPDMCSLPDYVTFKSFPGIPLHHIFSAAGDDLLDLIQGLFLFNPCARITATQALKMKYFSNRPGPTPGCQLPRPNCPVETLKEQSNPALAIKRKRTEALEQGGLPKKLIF
- Sequence (P51946 whole entry partner, the tested form may be a part): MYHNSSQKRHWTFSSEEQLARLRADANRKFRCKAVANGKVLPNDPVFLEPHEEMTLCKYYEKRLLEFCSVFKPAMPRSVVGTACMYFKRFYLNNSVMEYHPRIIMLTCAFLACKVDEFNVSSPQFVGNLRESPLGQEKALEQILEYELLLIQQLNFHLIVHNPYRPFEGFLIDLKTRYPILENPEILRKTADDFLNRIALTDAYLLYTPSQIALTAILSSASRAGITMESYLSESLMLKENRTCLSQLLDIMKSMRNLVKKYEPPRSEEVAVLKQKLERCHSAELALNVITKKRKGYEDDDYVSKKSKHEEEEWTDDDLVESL
- Sequence (P51948 whole entry partner, the tested form may be a part): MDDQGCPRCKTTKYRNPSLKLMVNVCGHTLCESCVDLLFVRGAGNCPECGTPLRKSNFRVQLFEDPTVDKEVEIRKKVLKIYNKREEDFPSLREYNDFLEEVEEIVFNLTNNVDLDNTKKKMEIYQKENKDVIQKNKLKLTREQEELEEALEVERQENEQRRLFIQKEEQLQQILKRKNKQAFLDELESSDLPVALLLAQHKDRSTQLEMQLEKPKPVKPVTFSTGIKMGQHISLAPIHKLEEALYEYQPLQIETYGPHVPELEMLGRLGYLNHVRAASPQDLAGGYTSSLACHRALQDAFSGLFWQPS
- assayInfo: Absorbance kinetic assay (20 nM CDK7/Cyclin H/MAT-1 complex)
- Format: biochemical
- experimentalContext: read-out: CDK7 (20 nM) pIC50 (converted)
# IC50 per record follows

Example entries and their recorded answers appear below.
[2H]C([2H])(Nc1ncc2c(n1)CN(C(=O)[C@H]1CCN(C)C[C@@H]1c1ccccc1)[C@H](C)C2)c1ccccc1	< 9.77 nM
C[C@@H]1Cc2cnc(N[C@H]3CCN(C)C(=O)C3)nc2CN1C(=O)[C@H]1CCN(C)C[C@@H]1c1ccccc1 (relative stereo)	< 9.77 nM
Cc1ccc([C@H]2CN(C)CC[C@@H]2C(=O)N2Cc3nc(NC4CCOCC4)ncc3C[C@H]2C)cn1 (relative stereo)	> 10000 nM
C[C@@H]1CN(C(=O)[C@H]2CCN(C)C[C@@H]2c2ccccc2)Cc2nc(NC3CCOCC3)ncc21 (relative stereo)	< 9.77 nM
C[C@@H]1Cc2cnc(N[C@@H]3CCC(=O)N(C)C3)nc2CN1C(=O)[C@H]1CCN(C)C[C@@H]1c1ccccc1 (relative stereo)	< 9.77 nM

Please look at the following compound next.
Entry C[C@@H]1Cc2cnc(NC3CCOCC3)nc2CN1C(=O)[C@@H]1CCN(C)C[C@H]1C1CC1 (relative stereo) — recorded IC50 = > 10000 nM
